Consider the following molecules and their measured growth readings.
- Test system: M14 melanoma
- assay-details: NCI-60 one-dose screen, 48 h (100 = growth as untreated, 0 = no growth, -100 = all killed)
- reported-conditions: 10 µM
The panel holds about 83,000 compounds, 20% with a hit somewhere; the sample as a whole holds those more often.
Write the number in % without appending the unit.

[in] Fill in: growth of "Cc1cc(Cl)ccc1Nc1nc(C(F)(F)F)ccc1C(=O)N/N=C/c1c(Cl)cccc1Cl" is ___
[out] 7.93

[in] Consider next the molecule COC1OC(COS(=O)OC)C(O)C(O)C1OS(=O)OC (centres undefined) in the same way.
[out] 96.6

[in] Consider next the molecule "CN1CCc2c(sc3nc4n(-c5ccc(Cl)cc5)cnn4c(=O)c23)C1" in the same way.
[out] 96.8

[in] Consider next the molecule "N#Cc1c(-c2ccc(Cl)cc2)cc(-c2cc(O)ccc2O)nc1N" in the same way.
[out] 2.5

[in] Consider next the molecule "c1ccc(CCCCc2ccc3ccccc3n2)cc1" in the same way.
[out] 98.1

[in] Consider next the molecule CC[C@@H](C(=O)[C@@H](C)[C@@H](O)[C@H](C)[C@@H]1O[C@@H]([C@@H](CC)C(=O)N(CC)CC)CC[C@@H]1C)C1O[C@]2(C=CC(=O)[C@]3(CC[C@@](C)([C@H]4CC[C@](O)(CC)[C@H](C)O4)O3)O2)[C@H](C)C[C@@H]1C (some centres undefined) in the same way.
[out] 13.6

[in] Consider next the molecule "COc1ccccc1-n1c(-c2csc(NC(C)=O)n2)n[nH]c1=S" in the same way.
[out] 98

[in] Consider next the molecule "CCN(CCCNc1cc2c(c(N)c1S(=O)(=O)O)C(=O)c1ccccc1C2=O)c1ccccc1" in the same way.
[out] 98.3

[in] Consider next the molecule "O=C(CCn1cnc2c(cc(-c3ccccc3)n2-c2ccccc2)c1=O)Nc1ccc(F)cc1" in the same way.
[out] 73.4

###

- Tested on: EKVX NSCLC
- assay-details: NCI-60 one-dose screen, 48 h
- reported-conditions: 10 µM
About 83,000 compounds went through this panel and 20% of them were active in at least one assay; those are over-represented in the sample as a whole. Calls of active or inactive are those of the source. The calls were made as follows: active = growth percent below 10; inactive = the rest.
# output must be one of YES = active, NO = inactive

A selection of reference data follows.
compound	group-label
COc1ccc(/C(=N\N)C(=O)c2ccccc2)cc1 (tested in a mixture with another compound)	NO
CCOc1ccccc1/C=N/N1CCCCCC1	NO
CC(=O)Nc1ccc(CC[C@H]2CCC/C=C/[C@@H]3C[C@H](O)C[C@H]3[C@H](O)/C=C/C(=O)O2)cc1	YES
COc1ccc(C2=Cn3c(CCC(=O)c4nc5ccccc5[nH]4)nnc3SC2)cc1	NO

[in] How was COc1ccc(/C=C2\CCCC3=C2NC(N)=NC3c2ccc(OC)cc2)cc1 (stereo not given) classified in this test?
[out] NO

###

- Test system: BT-549 breast
- assay-details: NCI-60 one-dose screen, 48 h (100 = growth as untreated, 0 = no growth, -100 = all killed)
- reported-conditions: 10 µM
Compounds without any hit were thinned out: in the full panel of roughly 83,000, 20% have a hit. Active and inactive are the calls of the source. How the source made its calls: active means growth percent below 10; inactive means the rest.
Consider the following molecules and their measured growth readings.

Consider the worked cases shown below.
molecule	target-system	growth
O=C(N/N=C/c1c(Cl)cccc1Cl)c1ccccc1Nc1cccc(C(F)(F)F)c1	BT-549 breast	81.3% (inactive)
CO[C@H]1CC(O[C@@H]2/C(C)=C/C[C@@H]3C[C@@H](C[C@]4(C=C[C@H](C)[C@@H](C5CCCCC5)O4)O3)OC(=O)[C@@H]3C=C(C)[C@@H](O)[C@H]4OC/C(=C\C=C\[C@@H]2C)[C@]43O)O[C@@H](C)C1O[C@H]1C[C@H](OC)[C@@H](O)[C@H](C)O1 (some centres undefined)	BT-549 breast	-68.9% (active)
CCOC(=O)c1cc(C(=O)c2cc(OC)c(OC)c(OC)c2)n2c1ccc1c3cccnc3ccc12	BT-549 breast	68.9% (inactive)
CSc1nc(S(C)(=O)=O)nc2[nH]c(=O)[nH]c12	BT-549 breast	102% (inactive)
C[C@H]1[C@H](OC(=O)CCC(=O)O)O[C@@H]2O[C@]3(C)CC[C@H]4[C@H](C)CC[C@@H]1[C@@]24OO3	BT-549 breast	37.9% (inactive)
O=C1/C=C/[C@@H](O)[C@@H]2C[C@@H](O)C[C@H]2/C=C/CCC[C@H](CCc2ccc(C(F)(F)F)cc2)O1	BT-549 breast	4.5% (active)
CCC(C)[C@H](NC(C)=O)C(=O)N[C@@H](CCCNC(=N)N)C(=O)N[C@@H](CCCCN)C(=O)N[C@@H](CC1CCC(O)CC1)C(=O)NC(C(=O)N[C@@H](CCSC)C(=O)N[C@@H](CCCNC(=N)N)C(=O)N[C@@]1(C)CCC/C=C\CCC[C@@](C)(C(=O)NC(C(=O)N[C@@H](CCC(=O)O)C(=O)N[C@@H](CC(C)C)C(=O)N[C@H](C(=O)N[C@@H](CCC(=O)O)C(N)=O)C(C)C)[C@@H](C)O)NC(=O)[C@H](CCC(N)=O)NC(=O)[C@H](CC(C)C)NC(=O)[C@H](CC(C)C)NC1=O)[C@@H](C)O (some centres undefined)	BT-549 breast	117% (inactive)
CCC(=O)OC1CCC2C3CCC(=O)OC3C(C)(CCC(=O)O)CC12C (centres undefined)	BT-549 breast	-8.83% (active)
CCCCCOC(=O)Nc1nc(=O)n(C2O[C@H](C)[C@@H](O)[C@H]2O)cc1F (some centres undefined)	BT-549 breast	102% (inactive)
COC(=O)CC[C@@H](C)[C@H]1CC[C@H]2[C@@H]3CC[C@@H]4C[C@H](O)CC[C@]4(C)[C@H]3C[C@H](O)[C@]12C	BT-549 breast	96.4% (inactive)

[in] Request body: readout growth, system BT-549 breast, query "COc1ccccc1/C=N\N/C(N)=N\N=C\c1ccccc1OC" . Return the value.
[out] -4.14% (active)

[in] Consider next the molecule COc1ccc(/C(=N\N)C(=O)c2ccccc2)cc1 (tested in a mixture with another compound) in the same way.
[out] 108% (inactive)

[in] Consider next the molecule "CCOC(=O)CSc1nc(-c2cc(OC)ccc2OC)cc(-c2ccc(OC)cc2)c1C#N" in the same way.
[out] 86% (inactive)

[in] Consider next the molecule "O=C(CI)OCC(COC(=O)CI)OC(=O)CI" in the same way.
[out] 74.6% (inactive)

[in] Consider next the molecule CC(C)c1ccc(C(C)C(=O)N(CC2=C(C(C)c3ccccn3)c3ccccc3C2)C(C)C)cc1 (centres undefined) in the same way.
[out] 69.6% (inactive)

[in] Consider next the molecule C/C(=C/CCC(C)[C@@H]1CC[C@]2(C)C3=C(CC[C@@]12C)[C@@]1(C)CCC(=O)C(C)(C)[C@@H]1CC3)C(=O)O (some centres undefined) in the same way.
[out] -90.8% (active)

[in] Consider next the molecule "CC(C)C[C@H](NC(=O)Cn1cccc(CNC(=O)c2ccccc2)c1=O)B(O)O" in the same way.
[out] 24.1% (inactive)

[in] Consider next the molecule CN(C)c1ncnc2c1nnn2C1OC(CO)C(O)C1O (centres undefined) in the same way.
[out] 46.1% (inactive)

[in] Consider next the molecule "CCOC(=O)c1cc(C(=O)c2cc(OC)c(OC)c(OC)c2)n2nc(C)ccc12" in the same way.
[out] 47.5% (inactive)

[in] Consider next the molecule Nc1ccc(-c2cccs2)cc1NC(=O)c1ccc(CCCC(=O)Nc2ccc(C3CC3N)cc2)cc1 (centres undefined) in the same way.
[out] 96.5% (inactive)

[in] Consider next the molecule "CCOC(=O)CN(c1sc(C)c(C)c1C(=O)OCC)S(=O)(=O)c1ccc(C)cc1" in the same way.
[out] 102% (inactive)

[in] Consider next the molecule "COc1ccc2nc(Cl)c(Cn3nnc(Cc4ccccc4)n3)cc2c1" in the same way.
[out] 20.3% (inactive)

###

- Tested on: EKVX NSCLC
- assay-details: NCI-60 one-dose screen, 48 h (100 = growth as untreated, 0 = no growth, -100 = all killed)
- reported-conditions: 10 µM
- Description: Growth inhibition of the EKVX human Non-Small Cell Lung tumor cell line is measured as a screen for anti-cancer activity. Cells are grown in 96 well plates and exposed to the test compound for 48 hours. Compounds are tested at a single concentration, which is 10^-5 M for most compounds. The reported endpoint is percent growth (GI% or GIPRCNT), where numbers from 0 - 100% represent growth inhibition, and numbers from -100% - 0 represent cell death. […]
About 83,000 compounds went through this panel and 20% of them were active in at least one assay; those are over-represented in the sample as a whole.
Consider the following compounds and their measured growth readings.
Write the number in % without appending the unit.

Consider the worked cases shown below.
compound	growth [%]
CCOC(=O)C1C(C(=O)OCC)C2C(=O)C3C(C(=O)OCC)C(C(=O)OCC)C3C(=O)C12 (stereo not given)	96.3
CCn1c2ccc(O)cc2c2c(C)c3c[n+](C)ccc3c(C)c21	73.7
COc1ccc2cc(-c3nc4ccccc4s3)c(Cl)nc2c1OC	100
COc1cc2c3c(n(C4CCN(C)CC4)c(=O)c2cc1OC)-c1cc2c(cc1C3=O)OCO2	69.4
O=C(Nc1ccc2c(O)cc(S(=O)(=O)O)cc2c1)c1ccc([N+](=O)[O-])cc1	93.7

[in] Request body: readout growth, system EKVX NSCLC, query "O=c1cn[nH]c2ccc(Br)cc12" . Return the value.
[out] 108

[in] Consider next the compound CC(C)=CCC/C(C)=C/CC/C(C)=C/CC/C=C(\C)CC/C=C(\C)CCC(=O)Nc1ccn(C2OC(CO)C(O)C2(F)F)c(=O)n1 (stereo not given) in the same way.
[out] 34.6

[in] Consider next the compound OCC1OC(n2ccc3c(NO)ncnc32)C(O)C1O (stereo not given) in the same way.
[out] -15.3

[in] Consider next the compound OC(CCN1CCCC1)(c1ccccc1)C1CCCCC1 (stereo not given) in the same way.
[out] 97.5

[in] Consider next the compound Cc1ccc(C(=O)C2C(=O)C3CCC2C3)cc1 (stereo not given) in the same way.
[out] 98.5
